Hi there, I'd appreciate the recorded drug sensitivity score for every entry that follows.
- Tested on: HCC1937
- Experiment: drug sensitivity score (DSS), CellTiter-Glo (DSS (AUC-based score)); higher = stronger drug effect (viability inhibition or cytotoxicity); extreme values may be limits of the assay
- Condition description: incubation time: 72 h
Answers are plain numbers.

Here is how some molecules turned out for drug sensitivity score.
CC(C)C[C@H](NC(=O)[C@H](CCc1ccccc1)NC(=O)CN1CCOCC1)C(=O)N[C@@H](Cc1ccccc1)C(=O)N[C@@H](CC(C)C)C(=O)[C@@]1(C)CO1	20.6
CN1CCc2c(c3ccccc3n2Cc2ccc(C(=O)NO)cc2)C1	1.2
O=NN(CCCl)C(=O)NC1CCCCC1	0

Attention now turns to another entry.
Assign drug sensitivity score to the following record: CC[C@H](CC#N)OC(=O)N[C@@H](C)c1cccc(NC(=O)Nc2ccc(-c3cnco3)c(OC)c2)c1 9.9

###

- Tested on: MFM-223
- Experiment: normalised response (% of control), CellTox Green; higher = less cell death (100 = DMSO, 0 = benzethonium chloride kill control)
- Condition description: incubation time: 72 h
Measured metric: normalised response (%)
Numbers only, in %.

Here is how some compounds turned out for normalised response.
N[C@@H](Cc1ccc(N(CCCl)CCCl)cc1)C(=O)O [Melphalan] (1250 nM)	10.1
Nc1nc(Cl)nc2c1ncn2[C@@H]1O[C@H](CO)[C@@H](O)[C@@H]1F [Clofarabine] (10000 nM)	102
CC(C)n1nc(-c2ccc3oc(N)nc3c2)c2c(N)ncnc21 [INK128] (10 nM)	99.9

Quick batch: normalised response for everything below.
1. C[C@@H]1C[C@H]2[C@@H]3CCC4=CC(=O)C=C[C@]4(C)[C@@]3(F)[C@@H](O)C[C@]2(C)[C@@]1(O)C(=O)CO [Dexamethasone] (100 nM)
2. CC(C)(C)Cn1c(N)nc2ccc(-c3[nH]c(C(C)(C)C)nc3-c3ccc(F)cc3)nc21 (10000 nM)
3. COc1cc(Nc2ncc(F)c(Nc3ccc4c(n3)N(COP(=O)(O)O)C(=O)C(C)(C)O4)n2)cc(OC)c1OC [Fostamatinib] (250 nM)
4. CCCc1cc(C)[nH]c(=O)c1CNC(=O)c1cc(-c2ccnc(N3CCN(C)CC3)c2)cc2c1cnn2C(C)C [GSK343] (10000 nM)
5. COc1cc2c(N3CCN(C(=O)Nc4ccc(OC(C)C)cc4)CC3)ncnc2cc1OCCCN1CCCCC1 [Tandutinib] (100 nM)

1: 95.7; 2: 86.6; 3: 101; 4: 77.3; 5: 100

###

Hi there, I'd appreciate the recorded normalised response for every entry that follows.
- System: CAL-148
- Experiment: normalised response (% of control), CellTiter-Glo; higher = more viable cells (100 = DMSO, 0 = benzethonium chloride kill control)
- Condition description: incubation time: 72 h
Give bare numbers, in %.

Here is how some compounds turned out for normalised response.
CC/C(=C(\c1ccccc1)c1ccc(OCCN(C)C)cc1)c1ccccc1 [Tamoxifen] (10000 nM)	77.7
Nc1nc(Cl)nc2c1ncn2[C@@H]1O[C@H](CO)[C@@H](O)[C@@H]1F [Clofarabine] (10000 nM)	40.5

Quick batch: normalised response for everything below.
1. Cc1c(C(=O)Nc2ccc(N3C[C@@H](C)O[C@@H](C)C3)nc2)cccc1-c1ccc(OC(F)(F)F)cc1 [Erismodegib] (10000 nM)
2. CC(C)C[C@H](NC(=O)[C@H](CCc1ccccc1)NC(=O)CN1CCOCC1)C(=O)N[C@@H](Cc1ccccc1)C(=O)N[C@@H](CC(C)C)C(=O)[C@@]1(C)CO1 [Carfilzomib] (1000 nM)
3. O=C(O)CC[C@H]1CC[C@@](c2cc(F)ccc2F)(S(=O)(=O)c2ccc(Cl)cc2)CC1 [MK-0752] (1000 nM)
4. NC(=O)c1cccc2cn(-c3ccc([C@@H]4CCCNC4)cc3)nc12 [MK-4827] (10000 nM)

100
7.77
115
71.8
